Target: CaLsb4
Assay: SPOT peptide array binding signal intensity (averaged, normalized) (arbitrary units (background-subtracted, floor 0; scale differs between SH3 domains)); higher = stronger binding of the SH3 domain to the peptide
Where SPOT peptide array binding signal intensity equals or exceeds 2000, the correct label is Fulfilled; where it does not, the label is Not fulfilled.

INSERT INTO assay_data (binder, category) VALUES
  ('NIKVLLNPKLGKPVK', 'Not fulfilled'),
  ('ISNFVPPNLPMRRFK', 'Fulfilled'),
  ('VFQFQMPTTPISTKM', 'Not fulfilled'),
  ('QHQQRQPKRPKRYSL', 'Not fulfilled'),
  ('TSIEIPKRSPLRFTS', 'Not fulfilled'),
  ('PLQSKIPMLPSRRTM', 'Fulfilled'),
  ('RSLRKRPTSPSISGS', 'Not fulfilled');
